Source listed as paper PMC6289942.

# measured_target: NS2B/NS3 protease (Dengue virus type 2, UniProt P14340)
# Construct: active site of the serine protease domain of the NS2B/NS3 protease; made in house; host or cells: Escherichia coli XL 1-Blue MRF
# Sequence (P14340 1476-1653): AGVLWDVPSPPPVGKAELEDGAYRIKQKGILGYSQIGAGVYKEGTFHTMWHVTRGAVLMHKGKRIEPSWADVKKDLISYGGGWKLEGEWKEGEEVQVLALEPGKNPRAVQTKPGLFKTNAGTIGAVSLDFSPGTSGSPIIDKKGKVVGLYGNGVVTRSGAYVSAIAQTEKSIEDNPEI
# Sequence (P14340 1346-1475): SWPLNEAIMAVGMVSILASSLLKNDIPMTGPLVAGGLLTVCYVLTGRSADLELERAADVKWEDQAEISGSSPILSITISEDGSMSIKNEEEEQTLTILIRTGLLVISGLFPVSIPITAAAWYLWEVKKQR
# assay_protocol: NS2B/NS3 protease inhibition assay using AlphaScreen beads
# Type: biochemical
assay_endpoint: IC50

Requested read-out: IC50. Entry: COc1cc(O)c(C(=O)[C@@H]2[C@H](CC=C(C)C)C(C)=CC[C@H]2c2ccccc2)c(O)c1
> 100 µM

---

# measured_target: NS2B/NS3 protease (Dengue virus type 2)
# Construct: active site of the serine protease domain of the NS2B/NS3 protease; made in house; host or cells: Escherichia coli XL 1-Blue MRF
# assay_protocol: Protease assay using fluorogenic peptide substrate (BOC-Gly-Arg-Arg-AMC)
# Format: biochemical
assay_endpoint: pIC50
In textbook form, pIC50 equals minus log to base ten of the concentration in mol/L.

Requested read-out: pIC50. Entry: COc1cc(O)c(C(=O)[C@@H]2[C@H](CC=C(C)C)C(C)=CC[C@H]2c2ccccc2)c(O)c1 [Panduratin A]
3.67
